# ASSAY_PROTOCOL: Pharmacokinetics and biodistribution after topical PS 8% ointment to hind paws (Example 25)
# Format: in vivo, mouse
# MEASUREMENT_PARAMETERS: mouse, in vivo, topical or ocular, 50 μl per paw of PS 8% ointment, SN (sciatic nerve); normal mice, topical PS 8% ointment to hind paws; read-out: Cmax, mean ± SEM
REPORTED_METRIC: Cmax (nM)
Enter your answer as a number in nM; do not include the unit.

Data request: For the compound shown here, CCOP(=O)(OCC)OCCCCOC(=O)CC1=C(C)/C(=C/c2ccc([S+](C)[O-])cc2)c2ccc(F)cc21 (stereo not shown) , give the reported Cmax.
Data returned: 900

====

# ASSAY_PROTOCOL: Pharmacokinetics and biodistribution after 3% PS gel on outer surface of eyelid (Example 26)
# Type: in vivo, rabbit
# MEASUREMENT_PARAMETERS: male, New Zealand White, rabbit, topical; AH (aqueous humor), 2 h; rabbits, 3% PS gel on outer surface of upper eyelids; read-out: Amount in tissue, Mean ± SEM
REPORTED_METRIC: concentration at 2 h
Answer format reminder: number followed by unit.

COMPOUND: CCOP(=O)(OCC)OCCCCOC(=O)CC1=C(C)/C(=C/c2ccc([S+](C)[O-])cc2)c2ccc(F)cc21 (centres unmarked)
VALUE: 0 nM

# next compound below
Data request: Recorded concentration at 2 h for CC1=C(CC(=O)O)c2cc(F)ccc2/C1=C\c1ccc([S+](C)[O-])cc1 (centres unmarked) , please?
Data returned: 0 nM

====

Each entry below carries its reported concentration at 0.5 h.
# ASSAY_PROTOCOL: Pharmacokinetics and biodistribution after 3% PS gel on outer surface of eyelid (Example 26)
# Type: in vivo, rabbit
# MEASUREMENT_PARAMETERS: male, New Zealand White, rabbit, topical; conjunctiva, 0.5 h; rabbits, 3% PS gel on outer surface of upper eyelids; read-out: Amount in tissue, Mean ± SEM
Write down the numeric answer in nM and omit the unit.

COMPOUND: CCOP(=O)(OCC)OCCCCOC(=O)CC1=C(C)/C(=C/c2ccc([S+](C)[O-])cc2)c2ccc(F)cc21 (centres unmarked) [PS, phosphosulindac]
REPORTED_METRIC: concentration at 0.5 h
VALUE: 1300

Data request: Which value of concentration at 0.5 h has been reported for CC1=C(CC(=O)O)c2cc(F)ccc2/C1=C\c1ccc([S+](C)[O-])cc1 (centres unmarked) [sulindac] in the records?
Data returned: 100

====

# ASSAY_PROTOCOL: Pharmacokinetics and biodistribution after 3% PS gel on outer surface of eyelid (Example 26)
# Assay type: in vivo, rabbit
# MEASUREMENT_PARAMETERS: male, New Zealand White, rabbit, topical; vitreous, 2 h; rabbits, 3% PS gel on outer surface of upper eyelids; read-out: Amount in tissue, Mean ± SEM
# Method: The pharmacokinetics and biodistribution of 3% PS gel applied to the outer surface of both upper eyelids was studies in male New Zealand White rabbits. Eyelid and tissues of the globe were dissected and frozen quickly in liquid nitrogen until the levels of PS and its metabolites were determined by HPLC as described Xie et al. (Br J Pharmacol (2012);165:2152-66).
The entries below come with measured concentration at 2 h values attached.
Record the value in nM, omitting the unit from your answer.

MOLECULE: CCOP(=O)(OCC)OCCCCOC(=O)CC1=C(C)/C(=C/c2ccc([S+](C)[O-])cc2)c2ccc(F)cc21 (centres unmarked)
VALUE_UNIT: nM
concentration at 2 h: 0

Let us move to another entry and its concentration at 2 h.
Data request: I would be grateful if you could share the reported concentration at 2 h for CC1=C(CC(=O)O)c2cc(F)ccc2/C1=C\c1ccc([S+](C)[O-])cc1 (centres unmarked) .
Data returned: 0
